Below, each entry is listed alongside its reported Plant response rating, Bromegrass, Downy.
Tested on: downy bromegrass (Bromus tectorum)
Procedure Details: Test C pre-/postemergence plant response
Format: in vivo
Settings: Preemergence, 8 g ai/ha; scale 0 to 100 (0 no effect, 100 complete control)
Excerpt: […] Treated plants and controls were maintained in a controlled growth environment for 15 to 25 days after which time all species were compared to controls and visually evaluated. […]

[
  {
    "Smiles Data": "Cc1cc(-c2ccc(Cl)cc2)nn1-c1c(OC(=O)OCC(C)C)cnn(C)c1=O",
    "Plant response rating, Bromegrass, Downy": 0
  },
  {
    "Smiles Data": "CCc1cc(-c2ccc(Cl)cc2)nn1-c1c(OC(=O)OC(C)C)cnn(C)c1=O",
    "Plant response rating, Bromegrass, Downy": 0
  },
  {
    "Smiles Data": "CCc1cc(-c2ccc(F)cc2)nn1-c1c(O)cnn(C)c1=O",
    "Plant response rating, Bromegrass, Downy": 20
  },
  {
    "Smiles Data": "COC(=O)Oc1cnn(C)c(=O)c1-n1nc(-c2ccc(Cl)cc2)cc1C",
    "Plant response rating, Bromegrass, Downy": 0
  },
  {
    "Smiles Data": "CCc1cc(-c2ccc(C(F)(F)F)cc2)nn1-c1c(OS(C)(=O)=O)cnn(C)c1=O",
    "Plant response rating, Bromegrass, Downy": 30
  },
  {
    "Smiles Data": "Cc1cc(-c2ccc(Cl)cc2)nn1-c1c(OS(=O)(=O)c2ccccc2[N+](=O)[O-])cnn(C)c1=O",
    "Plant response rating, Bromegrass, Downy": 0
  }
]
